Entries and their Post-emergence action against PHBPU in % values follow.
# System: PHBPU
# Measurement Protocol: Post-emergence herbicidal action against PHBPU
# Type: in vivo, Pharbitis purpurea
# Condition Label: dosage 5 g/ha

| Compound | Target Or System | Post-emergence action against PHBPU in % [%] |
| --- | --- | --- |
| CCn1nnnc1NC(=O)c1ccc(C(F)F)c(C(=O)NCC2CC2)c1C [Example 2-47] | PHBPU | 80 |
| COCCNC(=O)c1c(C(F)(F)F)ccc(C(=O)Nc2nnnn2C)c1C [Example 1-34] | PHBPU | 90 |
| CCn1nnnc1NC(=O)c1ccc(C(F)(F)F)c(C(=O)NC(C)C2CC2)c1Br (centres unmarked) [Example 2-213] | PHBPU | 80 |
| CCNC(=O)c1c(C(F)F)ccc(C(=O)Nc2nnnn2CC)c1SC [Example 2-88] | PHBPU | 80 |
| CCn1nnnc1NC(=O)c1ccc(C(F)(F)F)c(C(=O)NC)c1OC [Example 2-56] | PHBPU | 80 |

* * *

Entries and their Post-emergence action against VERPE in % values follow.
# Test system: VERPE
# Measurement Protocol: Post-emergence herbicidal action against VERPE
# Format: in vivo, Veronica persica
# Condition Label: 20 g/ha

| Molecule | Result Units | Post-emergence action against VERPE in % |
| --- | --- | --- |
| Cc1nnc(NC(=O)c2ccc(C(F)F)c(C(=O)NC(C)C3CC3)c2C)o1 (centres unmarked) [Example 6-258] | % | 80 |
| CCNC(=O)c1c(C(F)F)ccc(C(=O)Nc2nnnn2CC)c1OC [Example 2-73] | % | 90 |
| CCn1nnnc1NC(=O)c1ccc(C(F)(F)F)c(C(=O)NCC2CC2)c1SC [Example 2-84] | % | 80 |
| Cc1nnc(NC(=O)c2ccc(C(F)(F)F)c(C(=O)NC(C)C3CC3)c2Cl)o1 (centres unmarked) [Example 6-254] | % | 80 |
| COCCNC(=O)c1c(C(F)(F)F)ccc(C(=O)Nc2nnnn2C)c1C [Example 1-34] | % | 90 |

* * *

# System: SETVI
# Measurement Protocol: Pre-emergence herbicidal action against SETVI
# Format: in vivo, Setaria viridis
# Condition Label: Setaria viridis, 504 h, dosage 80 g/ha
# Source text: Seeds of monocotyledonous and dicotyledonous weed plants and crop plants are laid out in sandy loam soil in wood-fiber pots and covered with soil. […] The damage to the test plants is scored visually after a test period of 3 weeks by comparison with untreated controls (herbicidal activity in percent (%): 100% activity=the plants have died, 0% activity=like control plants). […]
Endpoint Label: pest or weed control at 80 g/ha (%)

| Compound | Endpoint Label | Result Units | Value Observed |
| --- | --- | --- | --- |
| CCNC(=O)c1c(OC)ccc(C(=O)Nc2nnnn2C)c1Cl [Example 1-355] | pest or weed control at 80 g/ha | % | 90 |
| CNC(=O)c1c(C(F)(F)F)ccc(C(=O)Nc2nnnn2C)c1C [Example 1-25] | pest or weed control at 80 g/ha | % | 100 |
| Cn1nnnc1NC(=O)c1ccc(C(F)(F)F)c(C(=O)NC2CC2)c1Br [Example 1-209] | pest or weed control at 80 g/ha | % | 100 |
| CNC(=O)c1c(C(F)(F)F)ccc(C(=O)Nc2nnnn2C)c1Br [Example 1-207] | pest or weed control at 80 g/ha | % | 100 |
| CCNC(=O)c1c(C(F)(F)F)ccc(C(=O)Nc2nnnn2CC)c1C1CC1 [Example 2-287] | pest or weed control at 80 g/ha | % | 100 |
| Cc1c(C(=O)Nc2nnnn2C)ccc(C(F)F)c1C(=O)NC(C)C [Example 1-346] | pest or weed control at 80 g/ha | % | 100 |
| CC(=O)NC(=O)c1c(C(F)(F)F)ccc(C(=O)Nc2nnc(C)o2)c1Cl [Example 6-252] | pest or weed control at 80 g/ha | % | 90 |
| CCCNC(=O)c1c(C(F)(F)F)ccc(C(=O)Nc2nnnn2C)c1C [Example 1-32] | pest or weed control at 80 g/ha | % | 100 |
| CC(=O)NC(=O)c1c(C(F)(F)F)ccc(C(=O)Nc2nnnn2C)c1Cl [Example 1-337] | pest or weed control at 80 g/ha | % | 90 |
| Cn1nnnc1NC(=O)c1ccc(Br)c(C(=O)NC2CC2)c1Cl [Example 1-179] | pest or weed control at 80 g/ha | % | 100 |
| CCNC(=O)c1c(C(F)(F)F)ccc(C(=O)Nc2nnnn2CC)c1C [Example 2-26] | pest or weed control at 80 g/ha | % | 100 |
| CCn1nnnc1NC(=O)c1ccc(Br)c(C(=O)NC)c1Cl [Example 2-177] | pest or weed control at 80 g/ha | % | 100 |
| CCNC(=O)c1c(C(F)(F)F)ccc(C(=O)Nc2nnnn2CC)c1Cl [Example 2-130] | pest or weed control at 80 g/ha | % | 100 |

* * *

# Tested on: ABUTH
# Measurement Protocol: Post-emergence herbicidal action against ABUTH
# Type: in vivo, Abutilon theophrasti
# Condition Label: dosage 20 g/ha, visual assessment about 3 weeks after treatment vs untreated controls
# Experimental: Seeds of monocotyledonous and dicotyledonous weed and crop plants are laid out in sandy loam soil in wood-fiber pots, covered with soil and cultivated in a greenhouse under good growth conditions. 2 to 3 weeks after sowing, the test plants are treated at the one-leaf stage. […]
Entries and their Post-emergence action against ABUTH in % values follow.
Endpoint Label: Post-emergence action against ABUTH in % (%)

| Chemical Structure | Target Or System | Endpoint Label | Result Units | Value Observed |
| --- | --- | --- | --- | --- |
| CCn1nnnc1NC(=O)c1ccc(C(F)(F)F)c(C(=O)NCC(F)(F)F)c1Br | ABUTH | Post-emergence action against ABUTH in % | % | 80 |
| CCc1c(C(=O)Nc2nnnn2C)ccc(C(F)(F)F)c1C(=O)NCC1CC1 | ABUTH | Post-emergence action against ABUTH in % | % | 80 |
| COCCNC(=O)c1c(C(F)(F)F)ccc(C(=O)Nc2nnnn2C)c1C | ABUTH | Post-emergence action against ABUTH in % | % | 100 |
| CCNC(=O)c1c(C(F)F)ccc(C(=O)Nc2nnnn2CC)c1OC | ABUTH | Post-emergence action against ABUTH in % | % | 80 |
| CCCNC(=O)c1c(C(F)F)ccc(C(=O)Nc2nnc(C)o2)c1Cl | ABUTH | Post-emergence action against ABUTH in % | % | 80 |
| CCNC(=O)c1c(C(F)F)ccc(C(=O)Nc2nnco2)c1SC | ABUTH | Post-emergence action against ABUTH in % | % | 90 |
| CCc1c(C(=O)Nc2nnnn2CC)ccc(C(F)(F)F)c1C(=O)NC | ABUTH | Post-emergence action against ABUTH in % | % | 100 |
| CCn1nnnc1NC(=O)c1ccc(C(F)F)c(C(=O)NC)c1C1CC1 | ABUTH | Post-emergence action against ABUTH in % | % | 90 |
| CCn1nnnc1NC(=O)c1ccc(C(F)F)c(C(=O)NC)c1OC | ABUTH | Post-emergence action against ABUTH in % | % | 80 |
| CCn1nnnc1NC(=O)c1ccc(C(F)(F)F)c(C(=O)NCC2CC2)c1Br | ABUTH | Post-emergence action against ABUTH in % | % | 80 |
| CCn1nnnc1NC(=O)c1ccc(C(F)(F)F)c(C(=O)NCC(F)F)c1C | ABUTH | Post-emergence action against ABUTH in % | % | 80 |
| CCn1nnnc1NC(=O)c1ccc(C(F)F)c(C(=O)NC2CC2)c1OC | ABUTH | Post-emergence action against ABUTH in % | % | 80 |
| CCNC(=O)c1c(C(F)F)ccc(C(=O)Nc2nnc(C)o2)c1C | ABUTH | Post-emergence action against ABUTH in % | % | 80 |
| CCc1c(C(=O)Nc2nnnn2CC)ccc(C(F)F)c1C(=O)NC | ABUTH | Post-emergence action against ABUTH in % | % | 90 |
| CCn1nnnc1NC(=O)c1ccc(C(F)(F)F)c(C(=O)NCCOC)c1C | ABUTH | Post-emergence action against ABUTH in % | % | 90 |

* * *

Entries and their Pre-emergence action against AMARE in % values follow.
# System: AMARE
# Measurement Protocol: Pre-emergence herbicidal action against AMARE
# Format: in vivo, Amaranthus retroflexus
# Condition Label: 20 g/ha, scored visually after 3 weeks vs untreated controls, 100% = plants have died, 0% = like control plants
Endpoint Label: Pre-emergence action against AMARE in % (%)

| Molecule | Endpoint Label | Value Observed |
| --- | --- | --- |
| Cn1nnnc1NC(=O)c1ccc(Br)c(C(=O)NCC2CC2)c1Cl [Example 1-180] | Pre-emergence action against AMARE in % | 100 |
| CCn1nnnc1NC(=O)c1ccc(C(F)F)c(C(=O)NC2CC2)c1C1CC1 [Example 2-306] | Pre-emergence action against AMARE in % | 90 |
| Cn1nnnc1NC(=O)c1ccc(C(F)(F)F)c(C(=O)NCc2cccs2)c1Cl [Example 1-144] | Pre-emergence action against AMARE in % | 90 |
| COCCNC(=O)c1c(C(F)(F)F)ccc(C(=O)Nc2nnnn2C)c1C [Example 1-34] | Pre-emergence action against AMARE in % | 100 |
| CCn1nnnc1NC(=O)c1ccc(C(F)F)c(C(=O)NCC(F)F)c1C [Example 2-49] | Pre-emergence action against AMARE in % | 100 |
| CCc1c(C(=O)Nc2nnnn2CC)ccc(C(F)(F)F)c1C(=O)NC1CC1 [Example 2-273] | Pre-emergence action against AMARE in % | 90 |
| Cn1nnnc1NC(=O)c1ccc(C(F)(F)F)c(C(=O)NCC2CCCO2)c1Cl (stereo not shown) [Example 1-141] | Pre-emergence action against AMARE in % | 100 |
